Every entry's value here was drawn from patent US20240043427A1.

Target: CD73 (Homo sapiens (Human))
Sequence (P21589 27-574): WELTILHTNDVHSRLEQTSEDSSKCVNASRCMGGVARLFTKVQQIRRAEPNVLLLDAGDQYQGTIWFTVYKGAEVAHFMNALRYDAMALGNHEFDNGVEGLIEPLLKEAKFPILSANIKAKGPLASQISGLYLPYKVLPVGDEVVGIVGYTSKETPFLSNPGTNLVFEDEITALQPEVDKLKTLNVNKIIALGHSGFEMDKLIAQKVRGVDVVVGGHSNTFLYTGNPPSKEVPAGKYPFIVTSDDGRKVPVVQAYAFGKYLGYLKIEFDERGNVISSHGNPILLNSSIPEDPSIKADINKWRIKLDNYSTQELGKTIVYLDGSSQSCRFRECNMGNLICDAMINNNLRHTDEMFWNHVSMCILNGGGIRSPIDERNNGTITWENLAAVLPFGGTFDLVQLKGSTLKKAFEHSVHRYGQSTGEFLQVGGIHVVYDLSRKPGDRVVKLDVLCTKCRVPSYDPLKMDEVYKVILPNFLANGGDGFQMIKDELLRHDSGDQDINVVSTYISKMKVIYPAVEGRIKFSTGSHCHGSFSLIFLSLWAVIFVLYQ
Assay: MDA-MB-231 Cell Based CD73 Activity Assay (DMEM)
Details: MDA-MB-231-GFP cells, DMEM medium with 10% human plasma, 200 uM AMP
Form field: pEC50 (one value per entry).
Quick note: pEC50 values are minus log10 of concentrations in mol/L.

Guide cases for pEC50, answers given:
[
  {
    "COMPOUND": "O=C(c1cn2nc(-c3c[nH]c(=O)[nH]c3=O)cc([C@H]3C[C@@H]3c3ccc(F)cc3)c2n1)N1CCC(F)(F)C1 (racemic)",
    "TARGET_ENTITY": "CD73 (Homo sapiens (Human))",
    "pEC50": 6.12
  },
  {
    "COMPOUND": "COCC1(C)CCN(c2cc(-c3c[nH]c(=O)[nH]c3=O)nn3ccnc23)C1 (stereo not shown)",
    "TARGET_ENTITY": "CD73 (Homo sapiens (Human))",
    "pEC50": 7.03
  },
  {
    "COMPOUND": "CC(C)(C)OC(=O)N1CC2(C1)CN(c1cc(-c3c[nH]c(=O)[nH]c3=O)nn3ccnc13)CC2(F)F",
    "TARGET_ENTITY": "CD73 (Homo sapiens (Human))",
    "pEC50": 7.89
  }
]

Consider the compound CC1(CC(F)(F)F)CN(c2cc(-c3c[nH]c(=O)[nH]c3=O)nn3ccnc23)C1 and give its recorded pEC50.
6.59
